The reported numbers originate from the NIST ThermoML archive (doi:10.1016/j.fluid.2011.11.020).

conditions: Liquid; Ebulliometric method (Recirculating still)
Some molecules, each annotated with its measured Normal boiling temperature.

structure smiles: CC(C)=C(C)C
Normal boiling temperature, °C: 73.00
--
structure smiles: C=C(C)C(C)C
Normal boiling temperature, °C: 55.73
--
structure smiles: CCC(C)C
Normal boiling temperature, °C: 28.00
--
structure smiles: CCCCCCC
Normal boiling temperature, °C: 98.49
--
structure smiles: c1ccsc1
Normal boiling temperature, °C: 84.27
